# target: hNPRA (Homo sapiens, UniProt P16066)
# Sequence (P16066 33-1061): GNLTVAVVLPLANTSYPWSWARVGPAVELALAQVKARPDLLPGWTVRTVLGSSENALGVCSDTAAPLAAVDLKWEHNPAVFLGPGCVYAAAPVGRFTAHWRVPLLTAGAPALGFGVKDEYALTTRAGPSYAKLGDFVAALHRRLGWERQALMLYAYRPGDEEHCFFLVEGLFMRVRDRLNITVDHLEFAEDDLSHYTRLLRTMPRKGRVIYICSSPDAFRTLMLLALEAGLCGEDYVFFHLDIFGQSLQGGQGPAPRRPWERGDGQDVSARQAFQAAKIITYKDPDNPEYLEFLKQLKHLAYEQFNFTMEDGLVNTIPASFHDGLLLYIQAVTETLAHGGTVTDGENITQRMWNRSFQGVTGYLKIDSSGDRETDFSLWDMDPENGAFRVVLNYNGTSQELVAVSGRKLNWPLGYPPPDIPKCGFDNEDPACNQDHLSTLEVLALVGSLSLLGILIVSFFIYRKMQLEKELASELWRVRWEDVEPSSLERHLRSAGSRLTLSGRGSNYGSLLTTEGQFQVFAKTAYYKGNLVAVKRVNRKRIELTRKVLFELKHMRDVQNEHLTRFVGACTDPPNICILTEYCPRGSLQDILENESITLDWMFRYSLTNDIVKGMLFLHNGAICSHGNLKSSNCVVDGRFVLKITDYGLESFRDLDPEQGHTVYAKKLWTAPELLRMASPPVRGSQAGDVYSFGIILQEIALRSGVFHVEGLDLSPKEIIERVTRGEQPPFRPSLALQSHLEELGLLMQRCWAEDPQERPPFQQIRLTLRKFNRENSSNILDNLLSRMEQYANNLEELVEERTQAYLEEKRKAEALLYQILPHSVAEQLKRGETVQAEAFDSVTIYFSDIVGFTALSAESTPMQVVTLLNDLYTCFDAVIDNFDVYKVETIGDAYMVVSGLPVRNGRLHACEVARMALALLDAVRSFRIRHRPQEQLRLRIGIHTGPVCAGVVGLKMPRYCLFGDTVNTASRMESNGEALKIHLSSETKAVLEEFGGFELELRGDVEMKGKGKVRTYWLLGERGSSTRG
# experiment_description: NPRA Functional Cell Assay (cGMP HTRF)
# test_conditions: Human NPRA HEK JumpIn stable cells; cGMP by HTRF after 1 hour at 37° C.; 10-point dose response
pEC50: −log10 of the molar value.
value_type: pEC50

Recorded results for 5 compounds are shown here.
>  <compound>
CC(C)[C@]1(F)CCc2nc3c(F)cc(C(=O)N[C@H](CCN4CC(O)C4)c4ccc(-c5ccnnc5)nc4)cc3cc2C1 (racemic)

>  <measurement>
5.92

$$$$
>  <compound>
COCCCC1CCN(CC[C@@H](NC(=O)c2cc(F)c3nc4c(cc3c2)C[C@](F)(C(C)C)CC4)c2ccc(-c3ccnnc3)nc2)CC1 (racemic)

>  <measurement>
6.76

$$$$
>  <compound>
CC(C)[C@]1(F)CCc2nc3c(F)cc(C(=O)N[C@H](CCN4CCCCC4CO)c4ccc(-c5ccnnc5)nc4)cc3cc2C1 (mixture of isomers)

>  <measurement>
7.10

$$$$
>  <compound>
CC(C)[C@]1(F)CCc2nc3c(F)cc(C(=O)N[C@H](CCN4CCC5(CCO5)CC4)c4ccc(-c5ccnnc5)nc4)cc3cc2C1 (racemic) [Example 62]

>  <measurement>
7.22

$$$$
>  <compound>
CC(C)C1CCN(CC[C@@H](NC(=O)c2cc(F)c3nc4c(cc3c2)C[C@](F)(C(C)C)CC4)c2ccc(-c3ccnnc3)nc2)CC1 (racemic)

>  <measurement>
6.59

$$$$

(A) CC1CCCCN1CC[C@@H](NC(=O)c1cc(F)c2nc3c(cc2c1)C[C@](F)(C(C)C)CC3)c1ccc(-c2ccnnc2)nc1 (mixture of isomers)
(B) CN(C)CC[C@@H](NC(=O)c1ccc2nc3c(cc2c1)C[C@@H](C1(C)CC1)CC3)c1cccc(C(=O)NC2CN(C)C2)c1 (racemic)
(C) CC(C)[C@]1(F)CCc2nc3c(F)cc(C(=O)N[C@H](CCN4CCC(O)CC4)c4ccc(N5CC[C@@H](O)[C@H](F)C5)nc4)cc3cc2C1
INPUT: Output the entries ranked by pEC50 from maximum down to minimum. Lab note: record answer as labels in requested order.
OUTPUT: A, B, C
